# TARGET_ENTITY: T1, recombinant human pro-sPLA2-GIB (pro form of group IB pancreatic phospholipase A2) (human, UniProt P04054 16-148)
# T1 construct: also called pro-sPLA2-IB; proPLA2-GIB
# RUN_DESCRIPTION: competition ELISA on coated pro-sPLA2-IB; competitor biotinylated 1C11
READOUT_NAME: percentage of signal (%)
Hi! Could you send only the number? It should be in %, unit omitted.

Input line: Dear colleague, I am looking for the recorded percentage of signal of the following binder: #24B2 (antibody, IgG2a, V domains shown) VH: DVQVQESGPGLVKPSQTVSLNCTVTGHSITDDNYYWSWIRLVSGSKLEWIGYITSSGSTDINPSLKSRISITRDISKNQFFLHLNSVTAEDTATYYCARDSTDGDFYFEKWGQGTTLTVSS VL: DIVLTQSPASLAVSLGQRATISCRASESVDNYGISFMHWYQQKPGQPPKLLIYRASNLESGIPARFSGSGSRTDFTLTINPVETDDVATYYCQQSSRDLFTFGGGTKLEIKR
Output line: 23

Input line: Dear colleague, I am looking for the recorded percentage of signal of the following binder: #22C6 (antibody, IgG2a, V domains shown) VH: EVQLQESGPGLVKPSQTVSLNCTVTGHSITDDNYYWSWIRLVSGSKLEWIGYITSAGNTDNNPSLKSRISITRDISKNQFFLHLSSVTAEDTATYYCARDSTDGDFYFEKWGQGTTLTVSS VL: EIVLTQSPTTMAASPGEKITITCSVSSSISPNFLHWYQQKPGFSPKLLIFRTSNLASGVPTRFSGSGSGTSYSLTIGTMEAEDVATYYCHQGNSLPLTFGAGTKLELKR
Output line: 18

Input line: Dear colleague, I am looking for the recorded percentage of signal of the following binder: #7A10 (antibody, IgG1, V domains shown, also called monoclonal antibody 7A10; #7A10 mAb) VH: QVQLKESGPGLVAPSQSLSITCTVSGFSLTSYGVSWVRQPPGKGLEWLGVIWGDGSTNYHSALISRLSISKDNSKSQVFLKLNSLQTDDTATYYCAKEGGLRRGVYFDYWGQGTTLTVSS VL: DIQMNQSPSSLSASLGDTITITCRASQGISIWLDWYQQKPGNIPKLLIYKASNLHTGVPPRFSGSGSGTDFTLTISSLQPEDIATYYCLQSQSYPLTFGAGTKLELKR
Output line: 18

Ref: patent US20210047431A1
